# Test system: HBV
# TEST SUMMARY: HBV inhibition assay in HepG2.2.15 cells (extracellular HBV DNA by qPCR)
# Format: cell-based
# TEST CONDITIONS: Hepatitis B virus, 120 h, extracellular HBV DNA in culture supernatant by qPCR, five days after compound treatment
pEC50: −log10 of the molar value.
Returns one of Yes or No; Yes when pEC50 is >= 7.

- MOLECULE: "C[C@H]1Cn2ncc(Oc3ccccn3)c2CN1C(=O)Nc1cc(F)c(F)c(F)c1"
  ANSWER LABEL: "No"
- MOLECULE: "C[C@H]1Cn2ncc(S(=O)(=O)C3CCOC3)c2CN1C(=O)Nc1ccc(F)c(Cl)c1 (stereo partly drawn)"
  ANSWER LABEL: "Yes"
- MOLECULE: "CC(C)S(=O)(=O)c1cnn2c1CN(C(=O)Nc1ccnc(C(F)F)c1)[C@@H](C)C2"
  ANSWER LABEL: "No"
- MOLECULE: "C[C@H]1Cn2ncc(N(C)C(=O)OCc3ccccc3)c2CN1C(=O)Nc1cc(F)c(F)c(F)c1"
  ANSWER LABEL: "No"
- MOLECULE: "C[C@H]1Cn2ncc(Oc3ncccn3)c2CN1C(=O)Nc1cc(F)c(F)c(F)c1"
  ANSWER LABEL: "No"
- MOLECULE: "COCCS(=O)(=O)N(C)c1cnn2c1CN(C(=O)Nc1cc(F)c(F)c(F)c1)[C@@H](C)C2"
  ANSWER LABEL: "No"
- MOLECULE: "CC(=O)N(C)c1cnn2c1CN(C(=O)Nc1cc(F)c(F)c(F)c1)[C@@H](C)C2"
  ANSWER LABEL: "No"
- MOLECULE: "CC(C)S(=O)(=O)c1cnn2c1CN(C(=O)Nc1ccnc(Cl)c1)[C@@H](C)C2"
  ANSWER LABEL: "No"

## Task Is pEC50 at least 7? Consider CC1Cn2ncc(OC3CCCC3)c2CN1C(=O)Nc1ccc(F)c(Cl)c1 (stereo not drawn)
## Result Yes

## Task Is pEC50 at least 7? Consider `C[C@H]1Cn2ncc(S(=O)(=O)N3CC(F)(F)C3)c2CN1C(=O)Nc1cc(F)c(F)c(F)c1`
## Result Yes

## Task Is pEC50 at least 7? Consider CC(C)Oc1cnn2c1CN(C(=O)Nc1ccc(F)c(Cl)c1)C(C)C2 (stereo not drawn)
## Result Yes

## Task Is pEC50 at least 7? Consider CC1Cn2ncc(S(=O)(=O)C3CCOC3)c2CN1C(=O)Nc1ccc(F)c(Cl)c1 (stereo not drawn)
## Result Yes

## Task Is pEC50 at least 7? Consider C[C@H]1Cn2ncc(OC3CCNC3=O)c2CN1C(=O)Nc1ccc(F)c(Cl)c1 (stereo partly drawn)
## Result No

## Task Is pEC50 at least 7? Consider CC1Cn2ncc(S(=O)(=O)C(C)C)c2CN1C(=O)Nc1ccc(F)c(Cl)c1 (stereo not drawn)
## Result Yes

* * *

# System: HBV
# TEST SUMMARY: HBV inhibition assay in HepG2.2.15 cells (extracellular HBV DNA by qPCR)
# Format: cell-based
# TEST CONDITIONS: Hepatitis B virus, 120 h, extracellular HBV DNA in culture supernatant by qPCR, five days after compound treatment
MEASURED QUANTITY: EC50 (nM)
Only the number, expressed in nM, is required.

## Task // query EC50 value for entry `C[C@H]1Cn2ncc(S(=O)(=O)C3CCCC3)c2CN1C(=O)Nc1ccnc(Cl)c1`
## Result 134

## Task // query EC50 value for entry `C[C@H]1Cn2ncc(S(=O)(=O)N[C@@H]3CCOC3)c2CN1C(=O)Nc1cc(F)c(F)c(F)c1`
## Result 156

## Task // query EC50 value for entry C[C@H]1Cn2ncc(S(=O)(=O)C3CCC(O)C3)c2CN1C(=O)Nc1cc(F)c(F)c(F)c1 (stereo partly shown)
## Result 96

## Task // query EC50 value for entry `CC(C)NS(=O)(=O)c1cnn2c1CN(C(=O)Nc1ccc(F)c(Cl)c1)[C@@H](C)C2`
## Result 82

## Task // query EC50 value for entry `C[C@H]1Cn2ncc(N(C)S(=O)(=O)C3CC3)c2CN1C(=O)Nc1cc(F)c(F)c(F)c1`
## Result 86

## Task // query EC50 value for entry `C[C@H]1Cn2ncc(S(=O)(=O)N3CC[C@H](O)C3)c2CN1C(=O)Nc1cc(F)c(F)c(F)c1`
## Result 145

## Task // query EC50 value for entry C[C@H]1Cn2ncc(OC3CCOC3)c2CN1C(=O)Nc1ccc(F)c(Cl)c1 (stereo partly shown)
## Result 151

## Task // query EC50 value for entry `C[C@H]1Cn2ncc(S(=O)(=O)NC(C)(C)CO)c2CN1C(=O)Nc1cc(F)c(F)c(F)c1`
## Result 156

## Task // query EC50 value for entry C[C@H]1Cn2ncc(S(=O)(=O)C3CCOC3)c2CN1C(=O)Nc1cc(F)c(F)c(F)c1 (stereo partly shown)
## Result 77

## Task // query EC50 value for entry `C[C@H]1Cn2ncc(S(=O)(=O)N3CCCC3)c2CN1C(=O)Nc1ccc(F)c(Cl)c1`
## Result 78
